The measured values listed here are drawn from patent US10577349B2.

System Name: EmCV Cap-independent translation
Test Description: In vitro translation assay, FF-EmCV-Ren construct, cap-independent (Ren luciferase)
Measurement Label: IC50

Past entries and their recorded results:
1. Cc1ccc(-c2c(C(=O)/C=C/c3nc4ccccc4[nH]3)c(=O)[nH]c3ccc(Cl)cc23)cc1	2 to 10 µM
2. O=C(/C=C/c1nc2ccccc2[nH]1)c1c(-c2ccccc2)c2cccnc2[nH]c1=O	10 to 20 µM
3. O=C(/C=C/c1cncc(F)c1)c1c(-c2cncc(Br)c2)c2cc(Cl)ccc2[nH]c1=O	2 to 10 µM
4. O=C(/C=C/c1nc2ccccc2[nH]1)c1c(-c2ccc(Cl)cc2)c2cc(Cl)ccc2[nH]c1=O	10 to 20 µM
5. Cn1ccc2cc(/C=C/C(=O)c3c(-c4ccccc4)c4cc(Cl)ccc4[nH]c3=O)ccc21	> 20 µM

Working through the 2 molecules below one at a time, give IC50 for each.
1. O=C(/C=C/c1ccc(F)cc1F)c1c(-c2ccccc2)c2cc(Cl)ccc2[nH]c1=O
2. Cc1ccnc(C#CC(=O)c2c(-c3ccccc3)c3cc(Cl)ccc3[nH]c2=O)c1

Return:
1. 2 to 10 µM
2. > 20 µM

Working through the 7 molecules below one at a time, give IC50 for each.
1. COc1ccc(-c2c(C(=O)/C=C/c3nc4ccccc4[nH]3)c(=O)[nH]c3ccc(Cl)cc23)cc1
2. O=C(/C=C/c1ccccc1)c1c(-c2ccccc2)c2cc([N+](=O)[O-])ccc2[nH]c1=O
3. O=C(/C=C/c1ccc(Br)cn1)c1c(-c2ccccc2)c2cc(Cl)ccc2[nH]c1=O
4. O=C(/C=C/c1cncc(Cl)c1)c1c(-c2ccccc2)c2cc(Cl)ccc2[nH]c1=O
5. O=C(/C=C/c1nc2ccccc2[nH]1)c1c(-c2ccccc2)c2cnccc2[nH]c1=O
6. CCn1c(/C=C/C(=O)c2c(-c3ccccc3)c3cc(Cl)ccc3n(CC)c2=O)nc2ccccc21
7. COc1ccc2[nH]c(=O)c(C(=O)/C=C/c3nc4ccccc4[nH]3)c(-c3ccccc3)c2c1

Return:
1: > 20 µM; 2: 2 to 10 µM; 3: 2 to 10 µM; 4: 2 to 10 µM; 5: 2 to 10 µM; 6: > 20 µM; 7: 10 to 20 µM

Working through the 4 molecules below one at a time, give IC50 for each.
1. COc1cncc(-c2c(C(=O)/C=C/c3ccccn3)c(=O)[nH]c3ccc(Cl)cc23)c1
2. Cn1c(/C=C/C(=O)c2c(-c3ccccc3)c3cc(Cl)ccc3[nH]c2=O)cc2ccccc21
3. O=C(/C=C/c1nc2ccccc2[nH]1)c1c(-c2ccccc2)c2cc([N+](=O)[O-])ccc2[nH]c1=O
4. O=C(/C=C/c1nc2ccccc2[nH]1)c1c(C2CCCCC2)c2cc(Cl)ccc2[nH]c1=O

Return:
1: 10 to 20 µM; 2: > 20 µM; 3: 2 to 10 µM; 4: 2 to 10 µM

Working through the 3 molecules below one at a time, give IC50 for each.
1. O=C(/C=C/c1ccc(C(F)(F)F)cc1)c1c(-c2ccccc2)c2cc(Cl)ccc2[nH]c1=O
2. COc1ccnc(/C=C/C(=O)c2c(-c3ccccc3)c3cc(Cl)ccc3[nH]c2=O)c1
3. O=C(/C=C/c1ccccc1)c1c(-c2cccs2)c2cc(Cl)ccc2[nH]c1=O

Return:
1: 2 to 10 µM; 2: 2 to 10 µM; 3: 2 to 10 µM

Working through the 2 molecules below one at a time, give IC50 for each.
1. N#Cc1cncc(-c2c(C(=O)/C=C/c3cncc(F)c3)c(=O)[nH]c3ccc(Cl)cc23)c1
2. Cc1ccc(-c2c(C(=O)/C=C/c3ccccn3)c(=O)[nH]c3ccc(Cl)cc23)cc1

Return:
1: 10 to 20 µM; 2: 2 to 10 µM
